Reported solubility at 1 h values for the following molecules.
Test: Assay 4 solubility assay, ChemiLuminescent Nitrogen Detection (CLND)
Type: physicochemical
Conditions: phosphate buffered saline, pH 7.4, aqueous buffer, kinetic from dmso stock, pH 7.4 PBS, from 10 mM DMSO stock, 1 h at room temperature

I have this molecule here, CC(=O)c1cnc2nc(-c3cc(NC(=O)N4CCCC4)ccc3F)cn2n1 [Example 46] , and I need its recorded solubility at 1 h. 100 to 416 µM

For the molecule shown here, O=C(Nc1ccc(F)c(-c2cn3nc(N4CCCCC4)cnc3n2)c1)N1CCCC1 [Example 4] , give the reported solubility at 1 h. 10 to 83 µM

Need solubility at 1 h, item CC(C)Cc1cnc2nc(-c3cc(NC(=O)N4CCCC4)ccc3F)cn2n1 [Example 36] 10 to 83 µM

Item COc1ccc(CNCc2cccc(-c3cnc4nc(-c5cc(NC(=O)N6CCCC6)ccc5F)cn4n3)c2)cc1 [Example 45] has what recorded solubility at 1 h? 10 to 83 µM

Look up solubility at 1 h: O=C(Nc1ccc(F)c(-c2cn3nc(-c4cccc(CN5CCOCC5)c4)cnc3n2)c1)N1CCCC1 [Example 19] 1 to 6 µM
